- tested on: human Fc region manufactured by Jackson ImmunoResearch Laboratories, Inc. (human)
- assay: phage ELISA, HRP-labelled Fc
Ends that are not written are not given here.
measured property: O.D. 415

1. YDPGTGTWRSYLRFGGG (peptide, T7 phage, not shown: large carriers, ends and bridges not checked) [recombinant phage displaying polypeptide SEQ ID NO: 3]: 0.278
2. YDPWTGTWRSFIWGGGG (peptide, T7 phage, not shown: large carriers, ends and bridges not checked) [recombinant phage displaying polypeptide SEQ ID NO: 6]: 0.149
3. recombinant phage displaying polypeptide SEQ ID NO: 66 (protein, T7 phage, not shown: large carriers, ends and bridges not checked) WPLNAPSSAFYDPETGTWYDAAWHLGELVWATYYDPETGTWEPDWQRMLGQ: 0.182
4. DAAWHLGELVWATYYDPETGTWVPDWERMKQH (peptide, T7 phage, not shown: large carriers, ends and bridges not checked) [recombinant phage displaying polypeptide SEQ ID NO: 33]: 0.305
5. HWVNGRSGYDPRTGTWRSSIAYGGG (peptide, T7 phage, not shown: large carriers, ends and bridges not checked) [recombinant phage displaying polypeptide SEQ ID NO: 16]: 0.373
6. TGRGRSARYDPRTGTWRSSIAYGGG (peptide, T7 phage, not shown: large carriers, ends and bridges not checked) [recombinant phage displaying polypeptide SEQ ID NO: 15]: 0.396
7. EAWHLGELVWATYYDPETGTWRPDWSRMSGR (peptide, T7 phage, not shown: large carriers, ends and bridges not checked) [recombinant phage displaying polypeptide SEQ ID NO: 55]: 0.252
